Entry source: PubChem BioAssay (NCI)

Tested on: DU-145 prostate
ASSAY EXPLANATION: NCI-60 one-dose screen, 48 h (100 = growth as untreated, 0 = no growth, -100 = all killed)
CONDITION LABEL: 10 µM unless noted
Protocol: Cells are grown in 96 well plates and exposed to the test compound for 48 hours. Compounds are tested at a single concentration, which is 10^-5 M for most compounds. The reported endpoint is percent growth (GI% or GIPRCNT), where numbers from 0 - 100% represent growth inhibition, and numbers from -100% - 0 represent cell death. For example, a value of 40 represents 60% growth inhibition. A value of 0 means no net growth occurred over the course of the experiment. […]
The panel holds about 83,000 compounds, 20% with a hit somewhere; the sample as a whole holds those more often.
Consider the following compounds; for each one, report its growth.
Give bare numbers, in %.

Below, each entry is followed by its recorded growth result.
- COMPOUND: "C=C(C)[C@@H]1CCC[C@]2(C(=O)OC)CC[C@]3(C)[C@@H](CC[C@@H]4[C@@]5(C)CCCNC(C)(C)[C@@H]5CC[C@]43C)[C@@H]12"
  TARGET UNDER TEST: "DU-145 prostate"
  OBSERVABLE: "growth"
  MEASUREMENT UNITS: "%"
  READING: 105
- COMPOUND: "Cc1[nH]c(C(=O)Nc2ccccc2OC2CCNC2)c(Cl)c1Cl (stereo not given)"
  TARGET UNDER TEST: "DU-145 prostate"
  OBSERVABLE: "growth"
  MEASUREMENT UNITS: "%"
  READING: 93.5
- COMPOUND: "CCN1C(=O)N(CC)C2C1NN=c1s/c(=C3\\C(=O)N(C)c4ccccc43)c(=O)n12 (stereo not given)"
  TARGET UNDER TEST: "DU-145 prostate"
  OBSERVABLE: "growth"
  MEASUREMENT UNITS: "%"
  READING: 11.9
- COMPOUND: "C/C(=N\\NC(=O)c1ccc(C(C)(C)C)cc1)c1ccc(O)cc1O"
  TARGET UNDER TEST: "DU-145 prostate"
  OBSERVABLE: "growth"
  MEASUREMENT UNITS: "%"
  READING: 29.3
- COMPOUND: "Cc1ccc(Nc2cc(N)nc(N)n2)cc1"
  TARGET UNDER TEST: "DU-145 prostate"
  OBSERVABLE: "growth"
  MEASUREMENT UNITS: "%"
  READING: 107
- COMPOUND: "Nc1nc(N)c2c(n1)NC(c1ccc3c(c1)OCO3)CC(c1cccc(Nc3ccncc3)c1)=N2 (stereo not given)"
  TARGET UNDER TEST: "DU-145 prostate"
  OBSERVABLE: "growth"
  MEASUREMENT UNITS: "%"
  READING: 106

Dear reader, for each entry below, please note its growth.
1. O=c1c2cccc3c(N4CCOCC4)ccc(c32)c2nc3ccccc3n12
2. CC(C)CCc1nc2ccc(NCc3ccc(OCCN4CCC(C)CC4)cc3)cc2[nH]1

[109, 89.4]

Dear reader, for each entry below, please note its growth.
1. CCOC(=O)CC1CSC(N/N=C/c2ccc(O)cc2)=N1 (stereo not given)
2. Cc1c2ccncc2c(C)c2c1c1ccccc1n2CCCCCC(=O)O

1. 106
2. 104
